# system_name: T1, human CD115 extracellular domain (Sino Biological 10161-H08H) (human, UniProt P07333 20-517)
# T1 construct: extracellular domain; bought recombinant protein; also called huCD115; hu-CD115
# experimental_details: ELISA, blocking of biotin-CSF-1 binding to coated hu-CD115
assay_metric: IC50 (nM)

CCK423A-IgG2κ (fully human) (antibody, V domains shown, also called Human IgG2κ) VH: QVQLEQSGAEVKRPGASVKVSCKASGYTFTGYYMHWVRQAPGQGLEWMGWINPNRGDTNYAQKFQGRVTMTRDTSISTAYMELSRLRSDDTAVYYCARDLEGGGPFDYWGQGTLVTVSS VL: DIVMTQTPLSLPVTPGEPASISCRSSQSLLDSDDGNTYLDWYLQKPGQSPQLLIYTLSYRASGVPDRFSGSGSGTDFTLKISRVEAEDVGVYYCMQRIEFPSTFGQGTRLEIK ... 0.253
CCK-423A (antibody, V domains shown, AlivaMab chimeric IgG, human kappa LC; also called AlivaMab CCK423A; AlivaMab Mouse CCK423A) VH: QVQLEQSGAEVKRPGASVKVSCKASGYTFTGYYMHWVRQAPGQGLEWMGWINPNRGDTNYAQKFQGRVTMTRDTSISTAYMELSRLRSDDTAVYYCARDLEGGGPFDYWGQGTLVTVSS VL: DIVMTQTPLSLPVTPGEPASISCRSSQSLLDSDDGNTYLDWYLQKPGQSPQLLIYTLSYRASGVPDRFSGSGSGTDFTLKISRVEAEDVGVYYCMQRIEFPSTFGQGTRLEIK ... 0.191
CCK423A-IgG4κ (fully human) (antibody, V domains shown, also called Human IgG4κ; CCK423A-IgG4K) VH: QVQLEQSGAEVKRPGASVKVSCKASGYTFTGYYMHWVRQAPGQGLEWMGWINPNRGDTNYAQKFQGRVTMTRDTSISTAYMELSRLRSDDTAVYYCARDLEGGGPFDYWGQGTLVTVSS VL: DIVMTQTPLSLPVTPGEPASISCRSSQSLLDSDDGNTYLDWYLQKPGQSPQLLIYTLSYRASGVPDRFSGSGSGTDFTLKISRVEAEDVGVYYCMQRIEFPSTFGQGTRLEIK ... 0.133
